Value source: the supplement of paper PMC9112550

- Tested on: Escherichia coli TOP10;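 note: peptides expressed intracellularly from a pBAD plasmid library in pooled LB shake-flask culture, induced with 0.3% L-arabinose, DNA abundance read by NGS, three biological replicates, DESeq2 with apeglm shrinkage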
- Method Summary: shrunken log2 fold change of peptide-encoding DNA abundance (4.5 h post-induction vs induction); higher = less antimicrobial activity (less host growth inhibition)
- Details: time post-induction: 4.5 h; library: site-saturation at positions 5, 18, 19, 20
So I've got a bunch of sequences here, and I need their shrunken log2 fold change values.
# output: bare number, no unit

Need shrunken log2 fold change of `RRIRIRPPRLPRPRPRPEADPRP` , thanks.
0.196

What value of shrunken log2 fold change has been recorded for this entry: `RRIRHRPPRLPRPRPRPNQLPRP`
-0.154

May I ask what shrunken log2 fold change has been recorded for `RRIRDRPPRLPRPRPRPEVRPRP` ?
1.91

Query (sequence): `RRIRQRPPRLPRPRPRPVIAPRP` ; field requested: shrunken log2 fold change
0.248

For the sequence shown here, `RRIRSRPPRLPRPRPRPLNDPRP` , give the reported shrunken log2 fold change.
-0.182

Look at this sequence and give its reported shrunken log2 fold change. `RRIRLRPPRLPRPRPRPQGFPRP`
-0.0528

Any idea what shrunken log2 fold change was measured for `RRIRPRPPRLPRPRPRPKAEPRP` ?
0.279

Which shrunken log2 fold change value is on record for `RRIRVRPPRLPRPRPRPFYNPRP` ?
-0.565

Looking for the measured shrunken log2 fold change of `RRIRKRPPRLPRPRPRPTNGPRP` , can you help?
0.0599

# query: shrunken log2 fold change of entry `RRIRTRPPRLPRPRPRPMEHPRP`
0.118

Name the recorded shrunken log2 fold change for `RRIRVRPPRLPRPRPRPFYPPRP` .
-0.441

Would you mind telling me what shrunken log2 fold change value was observed for `RRIRDRPPRLPRPRPRPSRGPRP` ?
0.386

Recorded shrunken log2 fold change for `RRIRSRPPRLPRPRPRPAVWPRP` , please?
0.765

Data request, read-out shrunken log2 fold change, for `RRIRQRPPRLPRPRPRPRFKPRP`
-0.128

// shrunken log2 fold change lookup, key: `RRIRARPPRLPRPRPRPYVAPRP`
-0.35
